- STUDY TARGET: TF/FVIIa (Homo sapiens)
- Construct: Coagulation factor VIIa initiates the extrinsic part of the coagulation cascade
- Sequence (P08709 61-212): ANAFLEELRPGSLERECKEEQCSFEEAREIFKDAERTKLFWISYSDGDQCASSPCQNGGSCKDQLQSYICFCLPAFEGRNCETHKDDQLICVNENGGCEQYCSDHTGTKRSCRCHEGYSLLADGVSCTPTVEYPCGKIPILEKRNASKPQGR
- Sequence (P08709 213-466): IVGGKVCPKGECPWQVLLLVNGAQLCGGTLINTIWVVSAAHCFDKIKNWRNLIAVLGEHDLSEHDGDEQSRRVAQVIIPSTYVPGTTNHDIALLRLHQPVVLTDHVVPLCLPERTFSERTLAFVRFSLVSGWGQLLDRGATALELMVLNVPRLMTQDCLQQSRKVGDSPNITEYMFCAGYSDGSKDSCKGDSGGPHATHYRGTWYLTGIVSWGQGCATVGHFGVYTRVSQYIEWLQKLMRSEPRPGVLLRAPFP
- Sequence (P13726 33-295, further chain): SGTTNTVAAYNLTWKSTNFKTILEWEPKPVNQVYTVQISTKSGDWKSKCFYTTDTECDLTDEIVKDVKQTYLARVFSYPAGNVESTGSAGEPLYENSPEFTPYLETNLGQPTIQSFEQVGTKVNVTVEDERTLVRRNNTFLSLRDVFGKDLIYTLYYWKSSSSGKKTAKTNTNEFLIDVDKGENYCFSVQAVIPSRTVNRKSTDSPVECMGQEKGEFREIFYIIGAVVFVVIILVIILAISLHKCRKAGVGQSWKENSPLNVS
- PROTOCOL SUMMARY: TF/FVIIa inhibition (TF/FVIIa-IC50)
Recorded measurements of IC50, one per entry
READOUT NAME: IC50 (nM)

INSERT INTO results (molecule, measurement_unit, value) VALUES
  ('C#Cc1ccc(NC(=O)N2C[C@H](OC)C[C@@H]2C(=O)Nc2ccc(N3CCOCC3=O)cc2)cc1 [Compound A2]', 'nM', 3.2),
  ('C#Cc1ccc(NC(=O)N2C[C@H](OC)C[C@@H]2C(=O)Nc2ccc(-n3ccccc3=O)cc2)cc1 [Compound A1]', 'nM', 1.9);
